Please respond with reported IC50 ratio (test:hBP) for every item in the list.
target: T1, Amyloid Beta (Aβ) 1-42 (human); test: competition ELISA, plate coated with fibril Aβ42, competitor hBP-biotin; IC50 of test divided by IC50 of hBP
T1 construct: The same peptide was used in several aggregation states: fibrils, a heterogeneous aggregate mixture, and soluble oligomers or aggregates; also called Aβ42; Aβ 42
T1 sequence (peptide, as listed by the source): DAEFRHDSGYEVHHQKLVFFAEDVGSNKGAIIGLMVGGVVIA
// print number alone

What does the data say about its IC50 ratio (test:hBP)? Entry: h2927 (antibody, V domains shown) VH: EVQLLESGGGLVQPGGSLRLSCAASGFTFSNFGMSWVRQAPGKGLEWVASVRSGSGRTYYSDNVKGRFTISRDNSKNTLYLQMNSLRAEDTAVYYCVRYDHYTGTSDYWGQGTLVTVSS VL: DVVMTQSPLSLPVTPGEPASISCKSSQSLLDYDGKTYLNWLLQKPGQSPQRLIYKVSNRDSGVPDRFSGSGSGTDFTLKISRVEAEDVGVYYCWQGTHFPRSFGQGTKVEIK 1.6

Then this binder: h3818G (antibody, V domains shown) VH: EVQLLESGGGLVQPGGSLRLSCAASGFTFANYGMSWVRQAPGKGLEWVASVRSGGSRTYYSDNVKGRFTISRDNSKNTLYLQMNSLRAEDTAVYYCVRYDHYSGSSDYWGQGTLVTVSS VL: DVVMTQSPLSLPVTLGEPASISCKSSQSLMDTDGKTYLNWLLQKPGQSPQRLIYKVSNRESGVPDRFSGSGSGTDFTLKISRVEAEDVGVYYCWQGTHFPRTFGQGTKVEIK 1.18

Then this binder: h49k3G (antibody, V domains shown, also called h49_hum3; 49human3) VH: EVQLLESGGGLVQPGGSLRLSCAASGFTFSNFGMSWVRQAPGKGLEWVASVRSGGGRTYYSDNVKGRFTISRDNSKNTLYLQMNSLRAEDTAVYYCVRYDHYSGTSDYWGQGTLVTVSS VL: DVVMTQSPLSLPVTLGEPASISCKSSQSLLDSDGKTYLNWLLQKPGQSPQRLIYKVSNRDSGVPDRFSGSGSGTDFTLKISRVEAEDVGVYYCWQGTHFPRTFGQGTKVEIK 2.16

Then this binder: h4921G (antibody, V domains shown) VH: EVQLLESGGGLVQPGGSLRLSCAASGFTFSNFGMSWVRQAPGKGLEWVASVRSGGGRTYYSDNVKGRFTISRDNSKNTLYLQMNSLRAEDTAVYYCVRYDHYSGTSDYWGQGTLVTVSS VL: DVVMTQSPLSLPVTLGEPASISCKSSQSLLDSDGKTYLNWLLQKPGQSPQRLIYRVTNRDTGVPDRFSGSGSGTDFTLKISRVEAEDVGVYYCWQGTHFPRTFGQGTKVEIK 1.01

Then this binder: h2831 (antibody, V domains shown, Humanized IgG) VH: EVQLLESGGGLVQPGGSLRLSCAASGFTFSNFGMSWVRQAPGKGLEWVASVRSGSGRTYYSDNVKGRFTISRDNSKNTLYLQMNSLRAEDTAVYYCVRYDHYSGTSDYWGQGTLVTVSS VL: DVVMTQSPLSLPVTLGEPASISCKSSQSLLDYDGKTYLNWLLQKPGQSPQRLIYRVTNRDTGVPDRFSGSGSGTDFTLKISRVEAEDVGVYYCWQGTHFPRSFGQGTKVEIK 0.77
